Sourced from the supplement of paper PMC6555819

In this section, each of the sequences is paired with its reported PBM binding z-score.
Test system: LXRb homodimer (NR concentration 270 nM)
Assay: PBM binding z-score (relative to random genomic background probes); higher = stronger binding; sequences stand for … in GC…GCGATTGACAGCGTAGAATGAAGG
Give the figure only, with no unit attached.

> print(dat)
                        sequence.code  quantitative.result
1  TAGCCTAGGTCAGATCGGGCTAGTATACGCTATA               -0.577
2  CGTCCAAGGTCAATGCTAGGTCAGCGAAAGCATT                 1.43

For the sequence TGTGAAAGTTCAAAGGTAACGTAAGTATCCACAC , what PBM binding z-score is on record?
2.11

For the sequence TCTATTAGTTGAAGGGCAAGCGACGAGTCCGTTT , what PBM binding z-score is on record?
0.193

For the sequence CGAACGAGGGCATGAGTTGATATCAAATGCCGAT , what PBM binding z-score is on record?
-0.654

For the sequence CATACAGGGTCAGCTAGGCCAGAGTAGGGACGGC , what PBM binding z-score is on record?
0.142

====

System: RXRa homodimer (NR concentration 180 nM)
Test: PBM binding z-score (relative to random genomic background probes); higher = stronger binding; sequences stand for … in GC…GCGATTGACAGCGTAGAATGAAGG
Please use YES whenever PBM binding z-score is not below 0.7, and NO whenever it is.

Record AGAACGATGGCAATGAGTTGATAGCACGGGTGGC ; criterion: PBM binding z-score no lower than 0.7. Met?
NO

Record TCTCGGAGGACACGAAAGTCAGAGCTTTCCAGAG ; criterion: PBM binding z-score no lower than 0.7. Met?
NO

Record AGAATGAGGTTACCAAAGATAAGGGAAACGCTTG ; criterion: PBM binding z-score no lower than 0.7. Met?
YES

Record TCTATTGGTTGATTAGGGCAACCGAAACAGCGGA ; criterion: PBM binding z-score no lower than 0.7. Met?
NO

====

Tested on: PPARg:RXRa DBDmut IVT, anti-RXR (DBD mutation: RXRa K156A/R161A, NR concentration 270 nM, RXRa partner concentration 90 nM)
Experiment: PBM binding z-score (relative to random genomic background probes); higher = stronger binding; sequences stand for … in GC…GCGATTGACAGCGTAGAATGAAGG
measured_metric: PBM binding z-score
Give the figure only, with no unit attached.

> print(dat)
                        sequence.code  quantitative.result
1  TCTAGTTGGTCACGGAGGTCACATACGACGGGTA                 2.69
2  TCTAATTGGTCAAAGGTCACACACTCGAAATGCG                 3.57
3  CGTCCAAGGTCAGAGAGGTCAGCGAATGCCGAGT                  3.1
4  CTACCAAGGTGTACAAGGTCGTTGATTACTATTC                0.458
5  TCATGTAGGTAAACAGGTGAAAGTCCGTAAGTTA                 4.93

For the sequence CCTGCTAGGTCATGGACAGCTAATCTACAGTATG , what PBM binding z-score is on record?
4.72

For the sequence TCATATACGTAAAGGTGAAAGTCGAACGATATGA , what PBM binding z-score is on record?
1.6

For the sequence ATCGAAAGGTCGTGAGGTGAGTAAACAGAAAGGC , what PBM binding z-score is on record?
0.111

For the sequence TCTGCTAGGTCAACGATGGTCAACTAATCTGCTA , what PBM binding z-score is on record?
4.51

For the sequence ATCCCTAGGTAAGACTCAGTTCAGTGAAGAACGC , what PBM binding z-score is on record?
0.0897

For the sequence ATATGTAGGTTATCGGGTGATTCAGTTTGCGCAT , what PBM binding z-score is on record?
7.59

For the sequence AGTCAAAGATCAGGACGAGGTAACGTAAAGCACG , what PBM binding z-score is on record?
-0.64

====

Tested on: RARb:RXRa (NR concentration 270 nM, RXRa partner concentration 90 nM)
Assay: PBM binding z-score (relative to random genomic background probes); higher = stronger binding; sequences stand for … in GC…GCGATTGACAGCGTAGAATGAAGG
In this section, each of the sequences is paired with its reported PBM binding z-score.
Give the figure only, with no unit attached.

Worked cases, answers included:
> print(dat)
                        sequence.code                       experimental.target  quantitative.result
1  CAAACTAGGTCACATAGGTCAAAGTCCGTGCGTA  RARb:RXRa (NR concentration 270 nM, RXRa partner concentration 90 nM)                  4.7
2  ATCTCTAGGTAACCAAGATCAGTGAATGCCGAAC  RARb:RXRa (NR concentration 270 nM, RXRa partner concentration 90 nM)                0.119
3  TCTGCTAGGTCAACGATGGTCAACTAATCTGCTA  RARb:RXRa (NR concentration 270 nM, RXRa partner concentration 90 nM)                 4.12
4  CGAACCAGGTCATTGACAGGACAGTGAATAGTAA  RARb:RXRa (NR concentration 270 nM, RXRa partner concentration 90 nM)                 3.58
5  GATACAGGTTCAGCTAGAGGCCAGAGTATGGAAA  RARb:RXRa (NR concentration 270 nM, RXRa partner concentration 90 nM)                 1.35

For the sequence AGAACGAGGGCACGCTGAGGTGATAGCAGAGTAG , what PBM binding z-score is on record?
2.66

For the sequence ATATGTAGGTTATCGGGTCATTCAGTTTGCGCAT , what PBM binding z-score is on record?
2.56

For the sequence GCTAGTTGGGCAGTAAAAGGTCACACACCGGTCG , what PBM binding z-score is on record?
4.16

For the sequence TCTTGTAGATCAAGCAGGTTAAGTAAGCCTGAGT , what PBM binding z-score is on record?
0.138

For the sequence CAAACTAGGTCAAAGTTCAAAGTCGAGCCAACCA , what PBM binding z-score is on record?
5.27

For the sequence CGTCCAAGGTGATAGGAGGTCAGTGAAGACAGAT , what PBM binding z-score is on record?
2.85

For the sequence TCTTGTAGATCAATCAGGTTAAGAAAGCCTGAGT , what PBM binding z-score is on record?
0.281

For the sequence CGAACGAGCGCATGAGTTGATAGCAAATGCCGAT , what PBM binding z-score is on record?
-1.03

====

Tested on: RARa homodimer (NR concentration 270 nM)
Test: PBM binding z-score (relative to random genomic background probes); higher = stronger binding; sequences stand for … in GC…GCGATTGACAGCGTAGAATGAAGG
Please use Condition met whenever PBM binding z-score is not below 0.3, and Condition not met whenever it is.

Record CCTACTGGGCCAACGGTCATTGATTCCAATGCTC ; criterion: PBM binding z-score no lower than 0.3. Met?
Condition not met

Record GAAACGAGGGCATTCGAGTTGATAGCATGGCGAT ; criterion: PBM binding z-score no lower than 0.3. Met?
Condition not met

Record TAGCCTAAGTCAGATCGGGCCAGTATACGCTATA ; criterion: PBM binding z-score no lower than 0.3. Met?
Condition not met

Record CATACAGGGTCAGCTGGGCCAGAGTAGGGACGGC ; criterion: PBM binding z-score no lower than 0.3. Met?
Condition not met

Record TCTGCTAAGTCAACGATGGTCAGCTAATCTGCTA ; criterion: PBM binding z-score no lower than 0.3. Met?
Condition not met

Record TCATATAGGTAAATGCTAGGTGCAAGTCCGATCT ; criterion: PBM binding z-score no lower than 0.3. Met?
Condition met

Record AGTCGAAGTTCATCTAGGTAACGTAAGATATGCT ; criterion: PBM binding z-score no lower than 0.3. Met?
Condition met

Record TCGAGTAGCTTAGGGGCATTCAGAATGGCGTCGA ; criterion: PBM binding z-score no lower than 0.3. Met?
Condition not met

Record CGTCCAAGGTCATAGGAGGTCTGTGAAGACAGAT ; criterion: PBM binding z-score no lower than 0.3. Met?
Condition not met

Record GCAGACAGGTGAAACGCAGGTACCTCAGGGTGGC ; criterion: PBM binding z-score no lower than 0.3. Met?
Condition not met

Record TAATATAGGTAAATGCTAGGTGAAAGTCCGATCT ; criterion: PBM binding z-score no lower than 0.3. Met?
Condition met

Record TCTCGGAGGACACGAAAGGTCAAAGCTCGACATC ; criterion: PBM binding z-score no lower than 0.3. Met?
Condition met
